Tested on: DU-145 prostate
Test: NCI-60 one-dose screen, 48 h (100 = growth as untreated, 0 = no growth, -100 = all killed)
Settings: 10 µM
The panel holds about 83,000 compounds, 20% with a hit somewhere; the sample as a whole holds those more often.
Assign growth to each entry below.
Give just the number in %; leave the unit off.

Please list growth recorded for the compound `CC(=O)/C=C/c1ccc(OCc2ccc(Cl)cc2)cc1`
96.6

Please list growth recorded for the compound `CC(=O)/C=C/c1ccc(OCc2ccc(C(C)(C)C)cc2)cc1`
89

Please list growth recorded for the compound `COc1ccc(C(=O)/C=C/c2ccc(OCc3cccc(C(F)(F)F)c3)c(OC)c2)cc1OC`
72.7

Please list growth recorded for the compound `CC(=O)/C=C/c1ccc(N(C)Cc2ccc(C(C)(C)C)cc2)cc1`
96.6

Please list growth recorded for the compound `CC(=O)/C=C/c1ccc(N(CCO)Cc2ccc(C(C)(C)C)cc2)cc1`
78
